Let's look at some molecules and their measured cytotoxicity at 70.5 h.
Assay: Human HepG2 cell viability assay in 384 well format
Format: toxicity, cell-based
Set-up: dose 125 nL, time 70.5 hour; concentration not given beside the values
Conditions: HepG2 cells, read-out: Inhibition

- Molecule: "COc1ncccc1C(=O)N1CC[C@H]2C[C@H](c3noc(C)n3)O[C@@H]2C1"
  cytotoxicity at 70.5 h (%): 51.3
- Molecule: "O=C(CN(CC(O)c1ccc(F)cc1)C1CC1)Nc1cccnc1 (stereo unspecified)"
  cytotoxicity at 70.5 h (%): -24.7
- Molecule: "Cc1cnn(C2CN(Cc3nc(-c4ccsc4)no3)C2)c1"
  cytotoxicity at 70.5 h (%): -8.74
- Molecule: "Cc1cc2ccccc2n1CCC(=O)N1CCCC1Cn1cccn1 (stereo unspecified)"
  cytotoxicity at 70.5 h (%): -9.07
- Molecule: "O=C(N1CCCC1)N1CC[C@H]2OCC[C@@]2(COc2ncccc2F)C1"
  cytotoxicity at 70.5 h (%): -1.3
- Molecule: "CS(=O)(=O)c1ccc(NC(=O)CSC(F)(F)F)cn1"
  cytotoxicity at 70.5 h (%): 20.8
- Molecule: "Cc1cccnc1N1CCN(Cc2cc(O)c3cccc(F)c3n2)CC1"
  cytotoxicity at 70.5 h (%): -0.745
- Molecule: "CCS(=O)(=O)CCCOc1nc(-c2ccccc2Cl)no1"
  cytotoxicity at 70.5 h (%): -96.6
- Molecule: "CN(C)C(=O)c1nn(C)c2c1CN(Cc1ccc(F)cc1)C2"
  cytotoxicity at 70.5 h (%): -6.32
- Molecule: "COc1cccc(SCCCn2cnc3c(N)ncnc32)c1"
  cytotoxicity at 70.5 h (%): 6.56
- Molecule: "CC(C)c1ccc(/C=C/CC(=O)NC2CCS(=O)(=O)CC2)cc1"
  cytotoxicity at 70.5 h (%): -1.79
